Hello, the source for this data is patent US11760744B2, in case you need it.

Tgt: K-Ras G12C (Homo sapiens, UniProt P01116, G12C)
Sequence (P01116 1-188 isoform P01116-2 G12C): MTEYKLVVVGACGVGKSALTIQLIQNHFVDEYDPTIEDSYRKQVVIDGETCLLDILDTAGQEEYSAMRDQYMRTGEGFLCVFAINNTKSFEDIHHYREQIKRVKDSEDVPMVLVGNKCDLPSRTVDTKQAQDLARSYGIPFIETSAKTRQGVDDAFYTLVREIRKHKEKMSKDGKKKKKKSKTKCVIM
Protocol summary: Western blot assay for in cell alkylation of K-Ras G12C (HCC1171 cells)
Test conditions: 18 hours at 37° C., 7 point dose response
Experimental: Western Blot Assay for in Cell Alkylation of K-Ras G12C HCC1171 cells were maintained in RPMI1640 supplemented with 10% FBS. Cells were plated in a 96-well plate at 20,000 cells/well and the following day compounds were added to the cells. […] To quantify this affect, the LICOR software was used to draw a rectangle over alkylated and unalkylated bands for each well and measured the total fluorescent intensity (FI) in each of these bands. […]
What EC50 was measured for each of the following?

Query block: Any idea what its EC50 is? The compound is C=CC(=O)N1CCN(c2nc(OC[C@@H]3CCCN3C)nc3c2C[C@@H](C(C)C)[C@H](c2nc(N)cc(C)c2C(F)(F)F)C3)[C@@H](C)C1 (single isomer, unassigned) [Example 33a]
Result block: 51 nM

Query block: Ok, now C=CC(=O)N1CCN(c2nc(OC[C@@H]3CCCN3C)nc3c2CC(C)C(c2c(C)ccc4[nH]ncc24)C3)CC1 (some centres unmarked) [Example 18a]
Result block: 280 nM

Query block: And for C=C(F)C(=O)N1CCN(c2nc(OC[C@@H]3C[C@@H](F)CN3C)nc3c2C[C@H](C)[C@@H](c2c(F)c(N)cc(C)c2C(F)(F)F)C3)C[C@@H]1CC#N (single isomer, unassigned) [Example 38d] ?
Result block: 1000 nM

Query block: Same read-out for C=CC(=O)N1CCN(c2nc(OC[C@@H]3CCCN3C)nc3c2C[C@H](C)[C@@H](c2nc(N)cc(C)c2C(F)(F)F)C3)CC1 (single isomer, unassigned) [Example 20b] ?
Result block: 2100 nM

Query block: Subsequent entry: C=CC(=O)N1C[C@H](C)N(c2nc(OC[C@@H]3CCCN3C)nc3c2C[C@H](C)[C@@H](c2cc(O)cc4ccccc24)C3)[C@@H](C)C1 (single isomer, unassigned) [Example 32b]
Result block: 920 nM

Query block: Repeat for the following compound: C=C(F)C(=O)N1CCN(c2nc(OC[C@@H]3CCCN3C)nc3c2CCC(c2cc(O)cc4ccccc24)C3)CC1CC#N (mixture of isomers) [Example 61a]
Result block: 16 nM

Query block: Then what about the compound C=CC(=O)N1CCN(c2nc(OC[C@@H]3CCCN3C)nc3c2CCC(c2cc(O)cc4ccccc24)C3)[C@@H](CO)C1 (single isomer, unassigned) [Example 29b] ?
Result block: 330 nM

Query block: Try this compound next: C=CC(=O)N1CCN(c2nc(OC[C@@H]3C[C@@H](F)CN3C)nc3c2C[C@@H](C)[C@H](c2c(F)c(N)cc(C)c2C(F)(F)F)C3)[C@@H](C)C1 (single isomer, unassigned) [Example 36b]
Result block: 6 nM

Query block: What about this compound? C=CC(=O)N1CCN(c2ncnc3c2C[C@@H](C)[C@H](c2nc(N)ccc2C(F)(F)F)C3)CC1 (single isomer, unassigned) [Example 42b]
Result block: 360 nM

Query block: Same read-out for C=C(F)C(=O)N1CCN(c2nc(OC[C@@H]3CCCN3C)nc3c2CC(C)C(c2c(F)c(N)cc(C)c2C(F)(F)F)C3)CC1CC#N (single isomer, unassigned) [Example 34a] ?
Result block: > 3000 nM

Query block: What would you report for C=CC(=O)N1CCN(c2nc(OC[C@@H]3CCCN3C)nc3c2C[C@@H](C)[C@H](c2nc(N)cc(C)c2C(F)(F)F)C3)CC1 (single isomer, unassigned) [Example 20a] ?
Result block: 14 nM
